Give measured Phage binding ELISA signal, Anti-PSMA Fab in presence of PSMA antigen for each item. Keep answers brief.
Target Or Test System: T1, PSMA Fab (006 PSMA Fab)
T1 construct: also called Anti-PSMA Fab; anti-PSMA Fab
Protocol Details: clonal phage ELISA; biotinylated PSMA Fab on neutravidin plate, wells pre-incubated with PSMA antigen (competitor); anti-M13 HRP detection

# count of solved cases: 6
- HEAMCRPTWMCHGF [Phage-3018]: 0.0722
- VLPVCKPLWMCKGL [Phage-3027]: 0.234
- IERLCMPMWMCTGL [Phage-3024]: 0.0679
- DMRRCEPIWMCVGF [Phage-3028]: 0.0954
- VDVLCVPSWMCSWL [Phage-3026]: 0.0683
- IESRCVPEWMCYGF [Phage-3019]: 0.0726

Dear reader, for each entry below, please note its Phage binding ELISA signal, Anti-PSMA Fab in presence of PSMA antigen.
1. PLVVCKPAWMCIGF [Phage-3025]
2. HHQLCKPLWMCEGF [Phage-3030]
3. GGLRCEPMWMCHGF [Phage-3021]
4. DHLMCKPSWMCKGF [Phage-3022]
5. DSIMCRPAWMCAGF [Phage-3029]

1. 0.0979
2. 0.13
3. 0.122
4. 0.0924
5. 0.0945

Could you report Phage binding ELISA signal, Anti-PSMA Fab in presence of PSMA antigen for every entry in the following list?
1. WEILCKPEWMCSGF [Phage-3031]
2. TVPKCVPNWMCDWL [Phage-3023]
3. EEKMCTPQWMCSGF [Phage-3020]

1: 0.105; 2: 0.0864; 3: 0.0688
